// data source = paper PMC9482650

Target: PTPN3, P26045
Sequence (P26045 505-587): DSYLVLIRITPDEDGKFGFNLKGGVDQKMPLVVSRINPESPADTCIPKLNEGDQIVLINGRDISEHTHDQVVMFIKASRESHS
Test: holdup assay
Set-up: key: below the threshold = too weak to quantify, mostly under pKd 3.1 to 4
Details: plain residues with an end cap or a label only (N-terminal biotin on a linker: ahx)
READOUT TYPE: pKd

| BINDER | VALUE OBSERVED |
| --- | --- |
| TESNLQTSSC [CGN, Q9P2M7] | below the threshold |
| APSRKLNTEI [TIAM1, Q13009] | below the threshold |
| TEAKLTETNA [MYO18A, Q92614] | below the threshold |
